Assignment: determine reported TGI for the given compounds.
- Tested on: MDA-MB-231 breast
- assayOverview: NCI tumour cell line growth inhibition, 48 h

Here's what some known entries look like.
| compound | TGI |
| --- | --- |
| CCCCn1cc(C(=O)O)c(=O)c2c3sccc3ccc21 | > 100 µM |
| O=c1oc2ccccc2cc1-c1nc2ccc([N+](=O)[O-])cc2o1 | > 100 µM |
| CC1(CC(=O)O)OC2CCCCCC2O1 (stereo not drawn) (tested in a mixture with another compound) | > 100 µM |
| O=C(OCc1ccccc1CN1CCOCC1)c1ccc(Br)cc1 | > 100 µM |
| COc1cccc(-c2nn(-c3ccccc3)cc2-c2ccnc(NCCNC(=O)Nc3ccc(Cl)c(Cl)c3)c2)c1 | 5.04 µM |

Items follow; give TGI for each.
1. CN1C(=O)c2cc(Cl)nc3c(NC(=O)c4cccc(Cl)c4)c(Cl)c(NC(=O)c4cccc(Cl)c4)c1c23
2. COC(=O)C(C)N1C(=O)c2ccccc2I1OC(C)=O (stereo not drawn)

1: 4.24 µM; 2: > 100 µM

====

- System: U251 CNS
Permitted responses: active, inactive

| compound | category |
| --- | --- |
| COc1ccc(C2=CC(c3cc(OC)c(OC)c(OC)c3)n3ncnc3N2)cc1 (stereo not given) | active |
| Oc1ccc2ccccc2c1-c1nnc(CCCCCCCCc2nnc(-c3c(O)ccc4ccccc34)o2)o1 | inactive |
| CC1Cc2c(N(C)C)ncnc2N(C)c2ccc(Cl)cc21 (stereo not given) | inactive |
| CN1C(=O)c2cc(Cl)nc3c(NC(=O)c4cccc(Cl)c4)c(Cl)c(NC(=O)c4cccc(Cl)c4)c1c23 | inactive |

Please share the test call associated with c1ccc2c(c1)nc(NCCN1CCNCC1)c1c3ccccc3[nH]c21 .
active

====

Assignment: determine reported TGI for the given compounds.
- Test system: DU-145 prostate
- assayOverview: NCI tumour cell line growth inhibition, 48 h

Here's what some known entries look like.
| compound | metric | result |
| --- | --- | --- |
| C[C@@H](NC(=O)Cc1cc(F)cc(F)c1)C(=O)N[C@@]1(C)N=C(c2ccccc2)c2ccccc2N(C)C1=O | TGI | > 100 µM |
| CC1=NN(c2nc(N)nc(/C(C#N)=C/c3ccncc3)n2)C(C)(C)C1 | TGI | > 100 µM |
| O=C(Oc1c(I)ccccc1=O)c1ccc([N+](=O)[O-])cc1 | TGI | 26.8 µM |

Items follow; give TGI for each.
1. Cc1cs/c(=N\C(P(=O)(O)O)P(=O)(O)O)n1C
2. O=C(Nc1cccc2nsnc12)c1cc2c(cc1Cl)Sc1nccn1S2(=O)=O
3. Cc1ccc([P+](Cc2ccc([N+](=O)[O-])cc2)(c2ccc(C)cc2)c2ccc(C)cc2)cc1

["> 100 µM", "3.17 µM", "20.8 µM"]

====

Assignment: determine reported GI50 for the given compounds.
- System: IGROV1 ovarian
- assayOverview: NCI tumour cell line growth inhibition, 48 h

| compound | GI50 |
| --- | --- |
| C[C@@H](NC(=O)Cc1cc(F)cc(F)c1)C(=O)N[C@@]1(C)N=C(c2ccccc2)c2ccccc2N(C)C1=O | > 65.6 µM |
| O=C1c2cccnc2C(=O)c2c1c(C(=O)OCCCN1CCOCC1)c1ccccn21 | 0.0163 µM |
| O=C1OC(c2ccc(O)cc2)(c2ccc(O)cc2)c2cccc3cccc1c23 | 17.6 µM |
| CCN(CC)CCOc1ccc(/C=C2\C[C@H]3[C@@H]4CC=C5C[C@@H](OC(C)=O)CC[C@]5(C)[C@H]4CC[C@]3(C)[C@H]2OC(C)=O)cc1OC | 14.9 µM |
| Cc1ccc(C2=Nc3c(N)ncnc3NC(c3cccc(Nc4ccnc5cc(C(F)(F)F)ccc45)c3)C2)cc1 (stereo unspecified) | 4.93 µM |

In the following, a different compound is considered.
Kindly state the measured GI50 obtained for COc1ccccc1C(=O)c1cnc(NC2CCN(S(C)(=O)=O)CC2)nc1N with IGROV1 ovarian.
8.05 µM
